The following molecules each carry a recorded AC50 for Gastrin/cholecystokinin type B receptor (Homo sapiens).

Solved cases below.
# MOLECULE, SYSTEM TESTED, VALUE
rows = [
    ("CC1(C)O[C@@H]2[C@@H](CO[C@@]3(COS(N)(=O)=O)OC(C)(C)O[C@@H]23)O1 [TOPIRAMATE]", "Gastrin/cholecystokinin type B receptor (Homo sapiens)", "> 30 µM"),
    ("CC(CCc1ccccc1)NC(C)C(O)c1ccc(O)cc1 (stereo not drawn) [NYLIDRIN]", "Gastrin/cholecystokinin type B receptor (Homo sapiens)", "> 30 µM"),
    ("Nc1ccc(C(=O)O)c(O)c1 [AMINOSALICYLIC ACID]", "Gastrin/cholecystokinin type B receptor (Homo sapiens)", "> 30 µM"),
    ("COC(=O)[C@H](c1ccccc1Cl)N1CCc2sccc2C1 [CLOPIDOGREL]", "Gastrin/cholecystokinin type B receptor (Homo sapiens)", "> 30 µM"),
    ("COc1c(O[C@@H]2O[C@H](CO)[C@@H](O)[C@H](O)[C@H]2O)cc2c(c1OC)-c1ccc(SC)c(=O)cc1[C@@H](NC(C)=O)CC2 [THIOCOLCHICOSIDE]", "Gastrin/cholecystokinin type B receptor (Homo sapiens)", "> 30 µM"),
]

Fill in: AC50 of CN(c1nccc(=O)[nH]1)C1CCN(c2nc3ccccc3n2Cc2ccc(F)cc2)CC1 [MIZOLASTINE] is ___
> 30 µM

// query AC50 value for entry N[C@H](Cc1cc(I)c(Oc2cc(I)c(O)c(I)c2)c(I)c1)C(=O)O [DEXTROTHYROXINE]
> 30 µM

Which AC50 is listed for COc1ccc(Cc2nccc3cc(OC)c(OC)cc23)cc1OC [PAPAVERINE] ?
> 30 µM
